Entry source: ChEMBL document CHEMBL4052776

Below are IC50 values recorded for Tyrosine-protein kinase Lyn (Homo sapiens, UniProt P07948).
experimental-endpoint: IC50 (nM)

{"item-smiles": "Nc1nccn2c([C@@H]3CCCN(C4CCOCC4)C3)nc(-c3ccc(C(=O)Nc4cc(C(F)(F)F)ccn4)cc3F)c12", "measured-on": "Tyrosine-protein kinase Lyn (Homo sapiens, UniProt P07948)", "IC50 / nM": 115}

P = Nc1nccn2c([C@H]3CN(C4CCOCC4)CCO3)nc(-c3ccc(C(=O)Nc4cc(C(F)(F)F)ccn4)cc3F)c12
Q = COCC(=O)N1CCC[C@@H](c2nc(-c3ccc(C(=O)Nc4cc(C(F)(F)F)ccn4)cc3F)c3c(N)nccn23)C1
Problem: Two entries are listed, P and Q . Which one carries the higher IC50? To answer, give the label that identifies your chosen option.
Solution: P
(P: 399 nM, Q: 74 nM)

* * *

pIC50: −log10 of the molar value.
Below are pIC50 values recorded for Proto-oncogene tyrosine-protein kinase Src (Homo sapiens, UniProt P12931).
experimental-endpoint: pIC50

a = CC(C)C(=O)N1CCO[C@@H](c2nc(-c3ccc(C(=O)Nc4cc(C(F)(F)F)ccn4)cc3F)c3c(N)nccn23)C1
b = Nc1nccn2c([C@H]3CN(C4CCOCC4)CCO3)nc(-c3ccc(C(=O)Nc4cc(C(F)(F)F)ccn4)cc3F)c12
c = COCC(=O)N1CCC[C@@H](c2nc(-c3ccc(C(=O)Nc4cc(C(F)(F)F)ccn4)cc3F)c3c(N)nccn23)C1
Problem: I'd appreciate it if you could rank the compounds mentioned above by pIC50, largest value first. Your answer should be the labels, listed in the requested order.
Solution: c, b, a
(c: 7.26, b: 6.95, a: 6.29)

* * *

- measured-on: Tyrosine-protein kinase CSK (Homo sapiens)
experimental-endpoint: IC50 (nM)

{"item-smiles": "COCC(=O)N1CCO[C@@H](c2nc(-c3ccc(C(=O)Nc4cc(C(F)(F)F)ccn4)cc3F)c3c(N)nccn23)C1", "IC50 [nM]": 626}
{"item-smiles": "Nc1nccn2c([C@H]3CN(C4CCOCC4)CCO3)nc(-c3ccc(C(=O)Nc4cc(C(F)(F)F)ccn4)cc3F)c12", "IC50 [nM]": 665}

* * *

- measured-on: Tyrosine-protein kinase Fyn (Homo sapiens)
- Sequence (P06241 whole entry): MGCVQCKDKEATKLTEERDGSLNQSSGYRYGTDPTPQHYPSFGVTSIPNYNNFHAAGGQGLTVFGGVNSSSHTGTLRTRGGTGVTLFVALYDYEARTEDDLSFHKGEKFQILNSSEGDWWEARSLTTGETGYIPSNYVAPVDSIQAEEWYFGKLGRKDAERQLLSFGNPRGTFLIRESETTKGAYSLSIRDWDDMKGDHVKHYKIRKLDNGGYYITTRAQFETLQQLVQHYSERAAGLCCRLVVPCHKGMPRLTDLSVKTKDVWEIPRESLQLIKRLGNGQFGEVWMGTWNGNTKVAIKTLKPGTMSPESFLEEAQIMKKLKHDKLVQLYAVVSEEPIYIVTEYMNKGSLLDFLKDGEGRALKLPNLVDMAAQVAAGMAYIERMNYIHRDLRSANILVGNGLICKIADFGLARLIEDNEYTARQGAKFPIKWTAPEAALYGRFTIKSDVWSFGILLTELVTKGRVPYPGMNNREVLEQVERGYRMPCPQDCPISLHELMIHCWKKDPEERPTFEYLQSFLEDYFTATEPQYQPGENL
experimental-endpoint: IC50 (nM)

A = CC(C)C(=O)N1CCO[C@@H](c2nc(-c3ccc(C(=O)Nc4cc(C(F)(F)F)ccn4)cc3F)c3c(N)nccn23)C1
B = COCC(=O)N1CCO[C@@H](c2nc(-c3ccc(C(=O)Nc4cc(C(F)(F)F)ccn4)cc3F)c3c(N)nccn23)C1
Problem: Two entries are listed, A and B . Which one carries the higher IC50? To answer, give the label that identifies your chosen option.
Solution: A

* * *

- measured-on: Tyrosine-protein kinase Blk (Homo sapiens, UniProt P51451)
- Sequence (P51451 whole entry): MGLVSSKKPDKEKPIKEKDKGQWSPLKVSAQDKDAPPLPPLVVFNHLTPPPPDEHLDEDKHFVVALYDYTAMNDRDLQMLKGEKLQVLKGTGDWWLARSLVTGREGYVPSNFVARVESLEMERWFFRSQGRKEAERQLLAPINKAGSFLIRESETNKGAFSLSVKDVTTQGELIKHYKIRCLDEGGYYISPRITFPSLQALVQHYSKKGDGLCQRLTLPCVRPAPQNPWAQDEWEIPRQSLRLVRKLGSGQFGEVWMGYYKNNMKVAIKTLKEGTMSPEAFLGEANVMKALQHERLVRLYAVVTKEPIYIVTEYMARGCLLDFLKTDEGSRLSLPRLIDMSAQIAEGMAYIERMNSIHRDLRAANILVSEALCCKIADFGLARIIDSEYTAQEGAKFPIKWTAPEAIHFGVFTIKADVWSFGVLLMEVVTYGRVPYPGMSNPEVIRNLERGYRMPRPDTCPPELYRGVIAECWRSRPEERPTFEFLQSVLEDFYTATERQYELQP
pIC50: −log10 of the molar value.
experimental-endpoint: pIC50

I = CC(C)C(=O)N1CCO[C@@H](c2nc(-c3ccc(C(=O)Nc4cc(C(F)(F)F)ccn4)cc3F)c3c(N)nccn23)C1
II = Nc1nccn2c([C@H]3CN(C4CCOCC4)CCO3)nc(-c3ccc(C(=O)Nc4cc(C(F)(F)F)ccn4)cc3F)c12
III = Nc1nccn2c([C@@H]3CCCN(C4CCOCC4)C3)nc(-c3ccc(C(=O)Nc4cc(C(F)(F)F)ccn4)cc3F)c12
Problem: Arrange the 3 compounds by rising pIC50, starting with the smallest. Your answer should be the labels, listed in the requested order.
Solution: I, II, III
(I: 6.55, II: 7.30, III: 7.54)

* * *

- assay-protocol: Total clearance in dog plasma at 2 mg/kg
- Type: ADME, organism-based, Canis lupus familiaris
experimental-endpoint: clearance (mL/min/kg)

I = CC(C)C(=O)N1CCO[C@@H](c2nc(-c3ccc(C(=O)Nc4cc(C(F)(F)F)ccn4)cc3F)c3c(N)nccn23)C1
II = C[C@H]1CO[C@@H](c2nc(-c3ccc(C(=O)Nc4cc(C(F)(F)F)ccn4)cc3F)c3c(N)nccn23)CN1C(=O)C1CC1
Problem: Two entries are listed, I and II . Which one carries the higher clearance? To answer, give the label that identifies your chosen option.
Solution: I

* * *

Below are pIC50 values recorded for Voltage-gated inwardly rectifying potassium channel KCNH2 (Homo sapiens, UniProt Q12809).
Value format note: pIC50 is -log10 of concentration (mol/L); just state the number.

Use the examples below as a reference point.
{"item-smiles": "CC(=O)N1CCC[C@@H](c2nc(-c3ccc(C(=O)Nc4cc(C(F)(F)F)ccn4)cc3F)c3c(N)nccn23)C1", "pIC50": 5.62}
{"item-smiles": "Nc1nccn2c([C@@H]3CCCN(C4CCOCC4)C3)nc(-c3ccc(C(=O)Nc4cc(C(F)(F)F)ccn4)cc3F)c12", "pIC50": 7.00}
{"item-smiles": "CC1(C(=O)N2CC(c3nc(-c4ccc(C(=O)Nc5cc(C(F)(F)F)ccn5)cc4)c4c(N)nccn34)C2)COC1", "pIC50": 6.40}

Proceed to the following item.
Problem: Report measured pIC50; entry is `CC1(C(=O)N2CCO[C@@H](c3nc(-c4ccc(C(=O)Nc5cc(C(F)(F)F)ccn5)cc4F)c4c(N)nccn34)C2)CCC1`
Solution: 4.85

* * *

- Organism: Homo sapiens
- assay-protocol: Selectivity ratio of IC50 for FRK (unknown origin) to IC50 for BTK (unknown origin)
experimental-endpoint: Ratio IC50

{"item-smiles": "COCC(=O)N1CCC[C@@H](c2nc(-c3ccc(C(=O)Nc4cc(C(F)(F)F)ccn4)cc3F)c3c(N)nccn23)C1", "Ratio IC50": 687}

1 = Nc1nccn2c([C@@H]3CCCN(C4CCOCC4)C3)nc(-c3ccc(C(=O)Nc4cc(C(F)(F)F)ccn4)cc3F)c12
2 = COCC(=O)N1CCO[C@@H](c2nc(-c3ccc(C(=O)Nc4cc(C(F)(F)F)ccn4)cc3F)c3c(N)nccn23)C1
3 = CC(C)C(=O)N1CCO[C@@H](c2nc(-c3ccc(C(=O)Nc4cc(C(F)(F)F)ccn4)cc3F)c3c(N)nccn23)C1
Problem: Task field, ranking: reported Ratio IC50, descending order. Your answer should be the labels, listed in the requested order.
Solution: 3, 2, 1

* * *

- Species on record: Homo sapiens
- assay-protocol: Selectivity ratio of IC50 for BLK (unknown origin) to IC50 for BTK (unknown origin)
experimental-endpoint: Ratio IC50

{"item-smiles": "COCC(=O)N1CCC[C@@H](c2nc(-c3ccc(C(=O)Nc4cc(C(F)(F)F)ccn4)cc3F)c3c(N)nccn23)C1", "Ratio IC50": 39}

1 = Nc1nccn2c([C@@H]3CCCN(C4CCOCC4)C3)nc(-c3ccc(C(=O)Nc4cc(C(F)(F)F)ccn4)cc3F)c12
2 = COCC(=O)N1CCO[C@@H](c2nc(-c3ccc(C(=O)Nc4cc(C(F)(F)F)ccn4)cc3F)c3c(N)nccn23)C1
3 = CC(C)C(=O)N1CCO[C@@H](c2nc(-c3ccc(C(=O)Nc4cc(C(F)(F)F)ccn4)cc3F)c3c(N)nccn23)C1
Problem: I would appreciate it if you could sort these 3 compounds by Ratio IC50, starting from the smallest number. Your answer should be the labels, listed in the requested order.
Solution: 1, 2, 3

* * *

- Organism: Homo sapiens
- assay-protocol: Selectivity ratio of IC50 for LYNB (unknown origin) to IC50 for BTK (unknown origin)
experimental-endpoint: Ratio IC50

1 = Nc1nccn2c([C@@H]3CCCN(C4CCOCC4)C3)nc(-c3ccc(C(=O)Nc4cc(C(F)(F)F)ccn4)cc3F)c12
2 = CC(C)C(=O)N1CCO[C@@H](c2nc(-c3ccc(C(=O)Nc4cc(C(F)(F)F)ccn4)cc3F)c3c(N)nccn23)C1
3 = COCC(=O)N1CCC[C@@H](c2nc(-c3ccc(C(=O)Nc4cc(C(F)(F)F)ccn4)cc3F)c3c(N)nccn23)C1
4 = COCC(=O)N1CCO[C@@H](c2nc(-c3ccc(C(=O)Nc4cc(C(F)(F)F)ccn4)cc3F)c3c(N)nccn23)C1
Problem: I'd appreciate it if you could rank the molecules mentioned above by Ratio IC50, largest value first. Your answer should be the labels, listed in the requested order.
Solution: 2, 4, 3, 1

* * *

- Organism: Homo sapiens
- assay-protocol: Selectivity ratio of IC50 for FGR (unknown origin) to IC50 for BTK (unknown origin)
experimental-endpoint: Ratio IC50

1 = Nc1nccn2c([C@@H]3CCCN(C4CCOCC4)C3)nc(-c3ccc(C(=O)Nc4cc(C(F)(F)F)ccn4)cc3F)c12
2 = CC(C)C(=O)N1CCO[C@@H](c2nc(-c3ccc(C(=O)Nc4cc(C(F)(F)F)ccn4)cc3F)c3c(N)nccn23)C1
3 = COCC(=O)N1CCC[C@@H](c2nc(-c3ccc(C(=O)Nc4cc(C(F)(F)F)ccn4)cc3F)c3c(N)nccn23)C1
4 = COCC(=O)N1CCO[C@@H](c2nc(-c3ccc(C(=O)Nc4cc(C(F)(F)F)ccn4)cc3F)c3c(N)nccn23)C1
Problem: I'd appreciate it if you could rank the compounds mentioned above by Ratio IC50, largest value first. Your answer should be the labels, listed in the requested order.
Solution: 2, 4, 3, 1
